Assay: Cytotoxicity against mouse 3T3-L1 adipocytes assessed as reduction in cell viability after 48 hrs by MTT assay
Type: toxicity, cell-based
Conditions: 3T3-L1 adipocytes
recorded.endpoint: IC50 at 48 h (µM)

> print(dat)
                        input.smiles  recorded.endpoint  units.of.measure  test.result
1  COc1cc(CCc2cc(O)c(O)c(OC)c2)ccc1O       IC50 at 48 h                µM         72.4

* * *

Assay: Cytotoxicity against mouse 3T3-L1 pre-adipocytes assessed as reduction in cell viability after 48 hrs by MTT assay
Type: toxicity, cell-based
Settings: 3T3-L1 pre-adipocytes
recorded.endpoint: IC50 at 48 h (µM)

> print(dat)
                        input.smiles  units.of.measure  test.result
1  COc1cc(CCc2cc(O)c(O)c(OC)c2)ccc1O                µM         35.5

* * *

Assay: Cytotoxicity against human PCS-210-010 pre-adipocytes assessed as reduction in cell viability after 48 hrs by MTT assay
Assay type: toxicity, cell-based
Conditions: PCS-210-010 pre-adipocytes
recorded.endpoint: IC50 at 48 h (µM)

> print(dat)
                        input.smiles  recorded.endpoint  test.result
1  COc1cc(CCc2cc(O)c(O)c(OC)c2)ccc1O       IC50 at 48 h         34.6
